# credit: patent US20240309093A1

Biological target: T1, recombinant human PD-1-his protein (human, UniProt Q15116 25-167)
T1 construct: also called hPD-1-his; not shown: his tag
T1 sequence (Q15116 25-167 limits assumed): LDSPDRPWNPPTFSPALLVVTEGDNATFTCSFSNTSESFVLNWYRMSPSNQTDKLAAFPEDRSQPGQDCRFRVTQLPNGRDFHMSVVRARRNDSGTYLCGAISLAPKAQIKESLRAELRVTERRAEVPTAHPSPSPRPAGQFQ
Test: ELISA; PD-1-his coated 2 µg/mL, anti-human IgG Fc-HRP
property: EC50 (nM)
Give the value in nM but do not write nM after it.

binder	observedResult
MHPD1-A-32 H Fc (Fc fusion, not shown: Fc) QVQLVESGGGLVQPGGSLRLSCATSKNRRSIYAMGWFRQAPGKGLEFVAGIGWAYATTYYADSVKGRFTISRDNTKNTLYLQMNSLRAEDTAVYYCAADLDHSGFDYWGQGTLVTVSS	0.156

# ---- query binder ----
## Task EC50 lookup needed for MHPD1-A-7 H Fc (Fc fusion, parent of the second round; also called parent MHPD1-A-7 H Fc; not shown: Fc) QVQLVESGGGLVQPGGSLRLSCATSGSRRSIYAMGWFRQAPGKGLEFVAGIGWAYATTYYADSVKGRFTISRDNTKNTLYLQMNSLRAEDTAVYYCAADLDHSGFDYWGQGTLVTVSS , thanks.
## Result 0.149
